# MEASURED_TARGET: Protein Mdm4 (Homo sapiens) + E3 ubiquitin-protein ligase Mdm2 (Homo sapiens) (UniProt O15151+Q00987)
# Sequence (O15151 whole entry, looked up): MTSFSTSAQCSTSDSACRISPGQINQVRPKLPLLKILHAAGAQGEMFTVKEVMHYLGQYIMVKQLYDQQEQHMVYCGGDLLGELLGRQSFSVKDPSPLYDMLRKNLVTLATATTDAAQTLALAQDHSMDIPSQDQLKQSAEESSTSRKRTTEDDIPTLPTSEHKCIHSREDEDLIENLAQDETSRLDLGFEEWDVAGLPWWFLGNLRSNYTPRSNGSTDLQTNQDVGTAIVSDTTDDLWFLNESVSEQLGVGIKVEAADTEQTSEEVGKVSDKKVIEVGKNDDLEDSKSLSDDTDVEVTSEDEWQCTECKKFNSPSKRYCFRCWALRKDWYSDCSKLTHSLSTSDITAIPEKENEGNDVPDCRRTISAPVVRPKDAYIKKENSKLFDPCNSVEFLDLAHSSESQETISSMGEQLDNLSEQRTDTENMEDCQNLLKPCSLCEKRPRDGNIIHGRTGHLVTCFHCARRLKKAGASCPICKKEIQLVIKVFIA
# Sequence (Q00987 whole entry, looked up): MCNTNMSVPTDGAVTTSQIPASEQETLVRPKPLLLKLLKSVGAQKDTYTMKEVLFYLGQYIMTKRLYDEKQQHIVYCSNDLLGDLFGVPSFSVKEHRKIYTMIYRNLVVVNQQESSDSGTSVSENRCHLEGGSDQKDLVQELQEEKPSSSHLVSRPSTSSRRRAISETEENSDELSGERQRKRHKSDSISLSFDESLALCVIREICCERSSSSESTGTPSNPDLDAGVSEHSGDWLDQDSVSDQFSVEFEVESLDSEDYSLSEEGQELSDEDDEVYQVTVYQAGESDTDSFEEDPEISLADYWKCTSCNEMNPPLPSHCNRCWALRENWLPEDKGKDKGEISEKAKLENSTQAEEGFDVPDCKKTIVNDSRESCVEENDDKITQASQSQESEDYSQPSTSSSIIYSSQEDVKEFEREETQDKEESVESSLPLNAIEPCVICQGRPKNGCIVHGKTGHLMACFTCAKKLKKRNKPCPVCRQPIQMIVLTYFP
# ASSAY_SUMMARY: inhibitors of human Mdm2-MdmX association, primary screen, cell-based, luminescence, split luciferase, SaOS-2, uHTS (AID 485346)
# MEASUREMENT_PARAMETERS: SaOS-2 split-luciferase Mdm2/MdmX complementation, at 8 µM, hits give high values
Out of some 330,000 compounds screened, about 10,000 (3%) were called active. For the sample, actives were picked, then their nearest neighbours and some compounds at random.
Recorded inhibition, one value per entry.
The answer is to be given in %; state only the numeric part.

Please fill in: inhibition reported for CCN(CC)CCC(c1ccc2c(c1)OCO2)c1c(OC)cc(OC)c2c(-c3ccccc3)cc(=O)oc12 (stereo not given) = 76.1

Looking up COc1cccc2sc(NNC(=O)c3nc4ccccc4s3)nc12 , I see its inhibition listed as 59.4

The recorded inhibition for entry COc1cc(OC)c2ccc(=O)oc2c1C(CCN1CCN(c2ccccc2)CC1)c1ccc2c(c1)OCO2 (stereo not given) equals 42.4

The compound listed as COc1nc(N=C(N)N)nc2c(C)cccc12 has a reported inhibition of 22.9

New cases:
Measured inhibition, Cn1ccsc1=NC(=O)c1cc(S(=O)(=O)N2CCOCC2)ccc1Cl : 28

Reported inhibition ( C=C1CCC(N(O)c2cc(C)on2)C(=C)CCC2C1CC2(C)C (stereo not given) ) = -8.29

Please fill in: inhibition reported for COc1cc(C(CCN2CCN(c3ccccc3)CC2)c2c(OC)cc(OC)c3ccc(=O)oc23)cc(OC)c1OC (stereo not given) = 15.2

For COc1ccc(/C=C(/CC(=O)Nc2ccc(C)cc2)c2nc3ccccc3s2)cc1 the compound record lists inhibition as -25.3

get_value(item= CC1=C(C(N)=O)C(c2ccc3c(c2)OCO3)n2nc(-c3cccc(C)c3)nc2N1 (stereo not given) , readout=inhibition) returns 7.35

# compound Cc1ccc(C(=O)Nc2sc(Cc3ccc4c(c3)OCO4)c(C)c2C(N)=O)cc1 ; its inhibition = 75.3

---

# MEASURED_TARGET: Protein Mdm4 (Homo sapiens) + E3 ubiquitin-protein ligase Mdm2 (Homo sapiens) (UniProt O15151+Q00987)
# ASSAY_SUMMARY: inhibitors of human Mdm2-MdmX association, primary screen, cell-based, luminescence, split luciferase, SaOS-2, uHTS (AID 485346)
# MEASUREMENT_PARAMETERS: SaOS-2 split-luciferase Mdm2/MdmX complementation, at 8 µM, hits give high values
Hit rate of the full screen: of about 330,000 compounds, about 10,000 (3%) were called active. This excerpt belongs to a sample that is enriched for actives.
Quick rule for you: inhibition at 7% or higher means criterion met, lower means criterion not met.

Exercise: Given C=CCn1c(C)cc(C2=NNC(=NCC)SC2)c1C , state whether its inhibition is at least 7%.
Solution: criterion met

Exercise: Please check the record CCOc1ccc(C(=O)CCC(=O)Nc2ccncc2)cc1 and state if its inhibition is at or above 7%.
Solution: criterion met

Exercise: Hi team, for COCCNC(=O)COc1ccc(N(C)S(=O)(=O)c2ccc3ccccc3c2)cc1 , is the recorded inhibition at or above 7%?
Solution: criterion met

Exercise: Confirm if inhibition reported for the compound O=C(CSc1ncn[nH]1)N/N=C/c1ccc(F)cc1 is 7% or above.
Solution: criterion not met

---
Exercise: Assess whether reported inhibition for O=C(Nc1cccnc1)c1noc2c1CCCCC2 sits at 7% or higher.
Solution: criterion not met

Exercise: Has Cc1ccc(C(=O)/C=C/c2c(C)nn(-c3ccccc3)c2Cl)cc1 a recorded inhibition greater than or equal to 7%?
Solution: criterion met

---

Readings of inhibition for the listed compounds
# MEASURED_TARGET: Protein Mdm4 (Homo sapiens) + E3 ubiquitin-protein ligase Mdm2 (Homo sapiens) (UniProt O15151+Q00987)
# ASSAY_SUMMARY: inhibitors of human Mdm2-MdmX association, primary screen, cell-based, luminescence, split luciferase, SaOS-2, uHTS (AID 485346)
# MEASUREMENT_PARAMETERS: SaOS-2 split-luciferase Mdm2/MdmX complementation, at 8 µM, hits give high values
The whole screen tested about 330,000 compounds, of which about 10,000 (3%) were called active. The full list was thinned out, with actives kept by preference.

Below, each entry is followed by its recorded inhibition result.
Lookup result for CC(C)CN1CCNC(=O)C1CC(=O)N(C)CC1CCOCC1 (stereo not given) ; measured inhibition: 11.5% (inactive)

inhibition reported for this compound O=C(Nc1ccc2ccccc2c1)Nc1ccc2snnc2c1 : 88.1% (active)

The reported value for CC(=O)Nc1ccc(Nc2nc3c(S(=O)(=O)c4ccc(C)c(C)c4)nnn3c3ccccc23)cc1 in terms of inhibition is 23.4% (inactive)

inhibition reading for COC(=O)c1ccccc1NC(=O)C1(S(=O)(=O)c2ccc(Cl)cc2)CC1 : -0.27% (inactive)

Entry CC(C)CCN(C(=O)c1csnn1)C(C(=O)NC1CCCC1)c1ccccc1 (stereo not given) — recorded inhibition = 1.25% (inactive)

Reported inhibition for O=C(Nc1cccc(Br)c1)c1ccc2snnc2c1 was -3.74% (inactive)

Measured inhibition of N#C/C(=C\c1ccc(-c2cccc([N+](=O)[O-])c2)o1)C(=O)NCCN1CCOCC1 : 10.3% (inactive)

// field: inhibition; key: Cc1cccc(Nc2nc3c(S(=O)(=O)c4ccccc4)nnn3c3ccccc23)c1C ; value = 77.7% (active)

Item: COc1ccc(-n2c(SCC(=O)Nc3sc4c(c3C#N)CCCC4)nnc2-c2ccc(O)cc2)cc1 | inhibition: 33.8% (inactive)

Continue with the compound presented below.
Item: Cc1ccc(S(=O)(=O)c2nnn3c2nc(N2CCN(c4ccccn4)CC2)c2ccccc23)cc1 | inhibition: 10.2% (inactive)

---

# MEASURED_TARGET: Protein Mdm4 (Homo sapiens) + E3 ubiquitin-protein ligase Mdm2 (Homo sapiens) (UniProt O15151+Q00987)
# ASSAY_SUMMARY: inhibitors of human Mdm2-MdmX association, primary screen, cell-based, luminescence, split luciferase, SaOS-2, uHTS (AID 485346)
# MEASUREMENT_PARAMETERS: SaOS-2 split-luciferase Mdm2/MdmX complementation, at 8 µM
Out of some 330,000 compounds screened, about 10,000 (3%) were called active.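 The calls were made as follows: active = inhibition of at least 50% at 8 µM in the primary screen; inactive = the rest.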 The entries come from a sample that favours actives as a whole.
Please state which outcome applies, choosing from active, inactive

Please review the following examples before continuing.
Exercise: Record lookup: outcome of this test for CN(C)c1nc2n(c(=O)n1)CCO2 ?
Solution: inactive

Exercise: Could you kindly confirm the outcome this assay logged for CCS(=O)(=O)N1CCC(N2CCN(c3ccccc3)CC2)CC1 ?
Solution: inactive

Exercise: Query: recorded result category for NC(=O)Cc1nc2scc(-c3ccc(Cl)cc3)c2c(=O)[nH]1 in this test
Solution: inactive

Exercise: Which outcome did this test record for the compound O=C1N/C(=C/c2cccn2-c2ccccc2)C(=O)N1c1cccc(Cl)c1 ?
Solution: active

Exercise: Each compound tested received a call. Report the one for Cc1ccc(CNC(=O)[C@@H](NC(=O)Cc2ccccc2)C(C)C)cc1 .
Solution: inactive

Continuing:
Exercise: Recorded test call requested for CCCCOC(=O)c1ccc(N2C(=O)CC(N3CCN(C/C=C/c4ccccc4)CC3)C2=O)cc1 (stereo not given)
Solution: inactive

Exercise: Please let me know the test result on file for C[C@@H]1C(c2ccc(F)cc2)=NN(c2ccc(Br)cc2)[C@H]1C(=O)N1CCOC1=O .
Solution: inactive

---

# MEASURED_TARGET: Protein Mdm4 (Homo sapiens) + E3 ubiquitin-protein ligase Mdm2 (Homo sapiens) (UniProt O15151+Q00987)
# ASSAY_SUMMARY: inhibitors of human Mdm2-MdmX association, primary screen, cell-based, luminescence, split luciferase, SaOS-2, uHTS (AID 485346)
# MEASUREMENT_PARAMETERS: SaOS-2 split-luciferase Mdm2/MdmX complementation, at 8 µM, hits give high values
Screen size: about 330,000 compounds; about 10,000 (3%) were called active. Many of the other results were omitted from the sample, so actives are more common in it than they were.
Recorded inhibition for the following molecules
Respond numerically; units are % and should not be typed.

In the examples that follow, each entry is paired with its recorded inhibition.
For this molecule ( COc1ccc(C(C[N+](=O)[O-])n2nc(C)cc2C)cc1 (centres undefined) ), measured inhibition is 69.3

Given item Cc1cc(C(=O)O)c(S(C)(=O)=O)s1 , the value recorded as its inhibition is 24.5

Sure, the documented inhibition for CCOc1ccc(C(C)C)cc1S(=O)(=O)n1nc(C)cc1C is 13.1

Others:
Sample COc1ccc(OC)c(S(=O)(=O)n2c([N+](=O)[O-])cnc2C)c1 ; inhibition observed: 22.7

---

# MEASURED_TARGET: Protein Mdm4 (Homo sapiens) + E3 ubiquitin-protein ligase Mdm2 (Homo sapiens) (UniProt O15151+Q00987)
# ASSAY_SUMMARY: inhibitors of human Mdm2-MdmX association, primary screen, cell-based, luminescence, split luciferase, SaOS-2, uHTS (AID 485346)
# MEASUREMENT_PARAMETERS: SaOS-2 split-luciferase Mdm2/MdmX complementation, at 8 µM, hits give high values
Hit rate of the full screen: of about 330,000 compounds, about 10,000 (3%) were called active. Shown is part of a subset that was picked to be rich in actives.
METRIC_NAME: inhibition (%)
Numeric answer only, unit % assumed.

inhibition recorded for this compound, O=C(COC(=O)CN1C(=O)C2CCCCC2C1=O)Nc1ccc(F)c(F)c1F (centres undefined) , is 34.5

inhibition for COc1nnc(-c2ccc(C)c(S(=O)(=O)N(C)C)c2)c2ccccc12 is 13.5

The compound listed as COc1cc(N=Cc2c(O)c3ccccc3oc2=O)c(OC)cc1Cl shows inhibition equal to 20.6

---
Measured inhibition, Cc1ccc(Nc2nc(N3CCOCC3)nc(N3CCOCC3)n2)cc1Cl : 48.2
